measurement-conditions: in n-pentanol, 288.15 K

{"compound-structure": "O=C(O[C@@H]1Cc2c(O)cc(O)cc2O[C@@H]1c1cc(O)c(O)c(O)c1)c1cc(O)c(O)c(O)c1", "solubility (mole fraction)": "5.7e-06"}

----------
measurement-conditions: in 2-ethoxyethanol, 278.15 K
property-measured: solubility (mole fraction)

{"compound-structure": "O=C(O[C@@H]1Cc2c(O)cc(O)cc2O[C@@H]1c1cc(O)c(O)c(O)c1)c1cc(O)c(O)c(O)c1", "property-measured": "solubility (mole fraction)", "experimental-value": 0.00904}

----------
measurement-conditions: in 2-methoxyethanol, 278.15 K

{"compound-structure": "O=C(O[C@@H]1Cc2c(O)cc(O)cc2O[C@@H]1c1cc(O)c(O)c(O)c1)c1cc(O)c(O)c(O)c1", "solubility (mole fraction)": 0.0158}

----------
measurement-conditions: in 2-methoxyethanol, 308.15 K

{"compound-structure": "O=C(O[C@@H]1Cc2c(O)cc(O)cc2O[C@@H]1c1cc(O)c(O)c(O)c1)c1cc(O)c(O)c(O)c1", "solubility (mole fraction)": 0.0558}

----------
measurement-conditions: in 2-propoxyethanol, 318.15 K

{"compound-structure": "O=C(O[C@@H]1Cc2c(O)cc(O)cc2O[C@@H]1c1cc(O)c(O)c(O)c1)c1cc(O)c(O)c(O)c1", "solubility (mole fraction)": 0.00809}

----------
measurement-conditions: in 2-butoxyethanol, 278.15 K

{"compound-structure": "O=C(O[C@@H]1Cc2c(O)cc(O)cc2O[C@@H]1c1cc(O)c(O)c(O)c1)c1cc(O)c(O)c(O)c1", "solubility (mole fraction)": 0.00142}

----------
measurement-conditions: in 2-methoxyethanol, 318.15 K
property-measured: solubility (mole fraction)

{"compound-structure": "O=C(O[C@@H]1Cc2c(O)cc(O)cc2O[C@@H]1c1cc(O)c(O)c(O)c1)c1cc(O)c(O)c(O)c1", "experimental-value": 0.0815}

----------
measurement-conditions: in n-butanol, 318.15 K

{"compound-structure": "O=C(O[C@@H]1Cc2c(O)cc(O)cc2O[C@@H]1c1cc(O)c(O)c(O)c1)c1cc(O)c(O)c(O)c1", "solubility (mole fraction)": 0.000349}

----------
measurement-conditions: in 2-propoxyethanol, 288.15 K

{"compound-structure": "O=C(O[C@@H]1Cc2c(O)cc(O)cc2O[C@@H]1c1cc(O)c(O)c(O)c1)c1cc(O)c(O)c(O)c1", "solubility (mole fraction)": 0.00352}

----------
measurement-conditions: in 2-butoxyethanol, 308.15 K
property-measured: solubility (mole fraction)

{"compound-structure": "O=C(O[C@@H]1Cc2c(O)cc(O)cc2O[C@@H]1c1cc(O)c(O)c(O)c1)c1cc(O)c(O)c(O)c1", "experimental-value": 0.00384}

----------
measurement-conditions: in n-butanol, 298.15 K
property-measured: solubility (mole fraction)

{"compound-structure": "O=C(O[C@@H]1Cc2c(O)cc(O)cc2O[C@@H]1c1cc(O)c(O)c(O)c1)c1cc(O)c(O)c(O)c1", "experimental-value": "5.41e-05"}

----------
measurement-conditions: in isopropanol, 278.15 K

{"compound-structure": "O=C(O[C@@H]1Cc2c(O)cc(O)cc2O[C@@H]1c1cc(O)c(O)c(O)c1)c1cc(O)c(O)c(O)c1", "solubility (mole fraction)": "6e-06"}

----------
measurement-conditions: in n-pentanol, 298.15 K
property-measured: solubility (mole fraction)

{"compound-structure": "O=C(O[C@@H]1Cc2c(O)cc(O)cc2O[C@@H]1c1cc(O)c(O)c(O)c1)c1cc(O)c(O)c(O)c1", "property-measured": "solubility (mole fraction)", "experimental-value": "3.01e-05"}

----------
measurement-conditions: in 2-ethoxyethanol, 298.15 K
property-measured: solubility (mole fraction)

{"compound-structure": "O=C(O[C@@H]1Cc2c(O)cc(O)cc2O[C@@H]1c1cc(O)c(O)c(O)c1)c1cc(O)c(O)c(O)c1", "property-measured": "solubility (mole fraction)", "experimental-value": 0.0272}

----------
measurement-conditions: in isopropanol, 318.15 K

{"compound-structure": "O=C(O[C@@H]1Cc2c(O)cc(O)cc2O[C@@H]1c1cc(O)c(O)c(O)c1)c1cc(O)c(O)c(O)c1", "solubility (mole fraction)": 0.000481}

----------
measurement-conditions: in sec-butanol, 278.15 K

{"compound-structure": "O=C(O[C@@H]1Cc2c(O)cc(O)cc2O[C@@H]1c1cc(O)c(O)c(O)c1)c1cc(O)c(O)c(O)c1", "solubility (mole fraction)": "5.04e-06"}

----------
measurement-conditions: in sec-butanol, 298.15 K

{"compound-structure": "O=C(O[C@@H]1Cc2c(O)cc(O)cc2O[C@@H]1c1cc(O)c(O)c(O)c1)c1cc(O)c(O)c(O)c1", "solubility (mole fraction)": "4.97e-05"}

----------
measurement-conditions: in n-butanol, 288.15 K

{"compound-structure": "O=C(O[C@@H]1Cc2c(O)cc(O)cc2O[C@@H]1c1cc(O)c(O)c(O)c1)c1cc(O)c(O)c(O)c1", "solubility (mole fraction)": "1.95e-05"}

----------
measurement-conditions: in n-propanol, 298.15 K

{"compound-structure": "O=C(O[C@@H]1Cc2c(O)cc(O)cc2O[C@@H]1c1cc(O)c(O)c(O)c1)c1cc(O)c(O)c(O)c1", "solubility (mole fraction)": "9.06e-05"}

----------
measurement-conditions: in 2-butoxyethanol, 298.15 K

{"compound-structure": "O=C(O[C@@H]1Cc2c(O)cc(O)cc2O[C@@H]1c1cc(O)c(O)c(O)c1)c1cc(O)c(O)c(O)c1", "solubility (mole fraction)": 0.00268}

----------
measurement-conditions: in n-pentanol, 308.15 K

{"compound-structure": "O=C(O[C@@H]1Cc2c(O)cc(O)cc2O[C@@H]1c1cc(O)c(O)c(O)c1)c1cc(O)c(O)c(O)c1", "solubility (mole fraction)": "8.6e-05"}

----------
measurement-conditions: in n-hexanol, 278.15 K

{"compound-structure": "O=C(O[C@@H]1Cc2c(O)cc(O)cc2O[C@@H]1c1cc(O)c(O)c(O)c1)c1cc(O)c(O)c(O)c1", "solubility (mole fraction)": "6.8e-07"}

----------
measurement-conditions: in 2-propoxyethanol, 308.15 K

{"compound-structure": "O=C(O[C@@H]1Cc2c(O)cc(O)cc2O[C@@H]1c1cc(O)c(O)c(O)c1)c1cc(O)c(O)c(O)c1", "solubility (mole fraction)": 0.0059}

----------
measurement-conditions: in methanol, 308.15 K

{"compound-structure": "O=C(O[C@@H]1Cc2c(O)cc(O)cc2O[C@@H]1c1cc(O)c(O)c(O)c1)c1cc(O)c(O)c(O)c1", "solubility (mole fraction)": 0.000184}

----------
measurement-conditions: in n-butanol, 308.15 K
property-measured: solubility (mole fraction)

{"compound-structure": "O=C(O[C@@H]1Cc2c(O)cc(O)cc2O[C@@H]1c1cc(O)c(O)c(O)c1)c1cc(O)c(O)c(O)c1", "property-measured": "solubility (mole fraction)", "experimental-value": 0.000136}

----------
measurement-conditions: in ethanol, 278.15 K

{"compound-structure": "O=C(O[C@@H]1Cc2c(O)cc(O)cc2O[C@@H]1c1cc(O)c(O)c(O)c1)c1cc(O)c(O)c(O)c1", "solubility (mole fraction)": "5.41e-05"}

----------
measurement-conditions: in ethanol, 288.15 K

{"compound-structure": "O=C(O[C@@H]1Cc2c(O)cc(O)cc2O[C@@H]1c1cc(O)c(O)c(O)c1)c1cc(O)c(O)c(O)c1", "solubility (mole fraction)": "9.24e-05"}

----------
measurement-conditions: in methanol, 318.15 K

{"compound-structure": "O=C(O[C@@H]1Cc2c(O)cc(O)cc2O[C@@H]1c1cc(O)c(O)c(O)c1)c1cc(O)c(O)c(O)c1", "solubility (mole fraction)": 0.000612}

----------
measurement-conditions: in n-propanol, 288.15 K

{"compound-structure": "O=C(O[C@@H]1Cc2c(O)cc(O)cc2O[C@@H]1c1cc(O)c(O)c(O)c1)c1cc(O)c(O)c(O)c1", "solubility (mole fraction)": "3.79e-05"}

----------
measurement-conditions: in n-hexanol, 318.15 K
property-measured: solubility (mole fraction)

{"compound-structure": "O=C(O[C@@H]1Cc2c(O)cc(O)cc2O[C@@H]1c1cc(O)c(O)c(O)c1)c1cc(O)c(O)c(O)c1", "experimental-value": 0.000138}

----------
measurement-conditions: in n-propanol, 318.15 K

{"compound-structure": "O=C(O[C@@H]1Cc2c(O)cc(O)cc2O[C@@H]1c1cc(O)c(O)c(O)c1)c1cc(O)c(O)c(O)c1", "solubility (mole fraction)": 0.000656}

----------
measurement-conditions: in isopropanol, 298.15 K
property-measured: solubility (mole fraction)

{"compound-structure": "O=C(O[C@@H]1Cc2c(O)cc(O)cc2O[C@@H]1c1cc(O)c(O)c(O)c1)c1cc(O)c(O)c(O)c1", "experimental-value": "5.53e-05"}

The measurements presented in this section are drawn from BigSolDB 2.1.
